Target: DRB1*0301 (Homo sapiens, UniProt P01903+P01911, A100K/A102G/A103R/A169T/F55Y/I96L/K41T/L162R/M171V/P40S/Q125H/Q178H/Q39Y/R42S/S66N/T106N/T262R/W38E/Y61H)
Test: HLA class II peptide-binding assay (competitive ELISA)
Details: immunopurified HLA, reference peptide IC50 423 nM, ratio ≤20 high affinity, 20–200 moderate affinity
Define the label as Fulfilled when relative binding ratio (IC50 of the test peptide divided by IC50 of the reference peptide) is strictly less than 8 and as Not fulfilled in all remaining cases.

Solved cases (6 shown):
HYIFYCEGELHGKPVR [pTL6, Tear lipocalin peptide p96–111] : Not fulfilled
GKWYLKAMTADQEVPE [pC1, Can f 1 peptide p15–30] : Fulfilled
ALEDFEKAAGARGLST [pTL8, Tear lipocalin peptide p126–141] : Not fulfilled
ESILIPRQSETCSPGSD [pTL9, Tear lipocalin peptide p142–158] : Not fulfilled
KPDSVTPMILKAQKGGNL [pC2, Can f 1 peptide p31–48] : Fulfilled
LEAKITMLTNGQCQNIT [pC3, Can f 1 peptide p48–64] : Not fulfilled

I'd appreciate it if you could check whether GTWYLKAMTVDREFPE [pTL1, Tear lipocalin peptide p15–30] has relative binding ratio (IC50 of the test peptide divided by IC50 of the reference peptide) smaller than 8.
Not fulfilled

I'd appreciate it if you could check whether PGKYTADGGKHVAYII [pTL4, Tear lipocalin peptide p74–89] has relative binding ratio (IC50 of the test peptide divided by IC50 of the reference peptide) smaller than 8.
Not fulfilled

I'd appreciate it if you could check whether PGKYTAYEGQRVVFIQ [pC4, Can f 1 peptide p73–88] has relative binding ratio (IC50 of the test peptide divided by IC50 of the reference peptide) smaller than 8.
Not fulfilled

* * *

Molecular target: DRB1*0101 (Homo sapiens, UniProt P01903+P01911, A100R/D57E/F55L/F60I/F76Y/I96L/L162R/M171V/P40L/Q125E/R42F/V115G/Y59C)
Assay: HLA class II peptide-binding assay (competitive ELISA)
Conditions: immunopurified HLA, reference peptide IC50 3 nM, ratio ≤20 high affinity, 20–200 moderate affinity
Define the label as fulfilled when relative binding ratio (IC50 of the test peptide divided by IC50 of the reference peptide) is strictly less than 70 and as not fulfilled in all remaining cases.

Solved cases (5 shown):
GTWYLKAMTVDREFPE [pTL1, Tear lipocalin peptide p15–30] : not fulfilled
ALEDFEKAAGARGLST [pTL8, Tear lipocalin peptide p126–141] : fulfilled
LEAKVTMLISGRCQEVK [pTL3, Tear lipocalin peptide p49–65] : fulfilled
ESILIPRQSETCSPGSD [pTL9, Tear lipocalin peptide p142–158] : not fulfilled
MNLESVTPMTLTTLEGGNL [pTL2, Tear lipocalin peptide p31–49] : fulfilled

I'd appreciate it if you could check whether KPDSVTPMILKAQKGGNL [pC2, Can f 1 peptide p31–48] has relative binding ratio (IC50 of the test peptide divided by IC50 of the reference peptide) smaller than 70.
not fulfilled

I'd appreciate it if you could check whether PGKYTAYEGQRVVFIQ [pC4, Can f 1 peptide p73–88] has relative binding ratio (IC50 of the test peptide divided by IC50 of the reference peptide) smaller than 70.
fulfilled

I'd appreciate it if you could check whether EILELAQSETCSPGGQ [pC9, Can f 1 peptide p141–156] has relative binding ratio (IC50 of the test peptide divided by IC50 of the reference peptide) smaller than 70.
fulfilled

I'd appreciate it if you could check whether ALEDFREFSRAKGLNQ [pC8, Can f 1 peptide p125–140] has relative binding ratio (IC50 of the test peptide divided by IC50 of the reference peptide) smaller than 70.
not fulfilled

I'd appreciate it if you could check whether GKHVAYIIRSHVKDHY [pTL5, Tear lipocalin peptide p82–97] has relative binding ratio (IC50 of the test peptide divided by IC50 of the reference peptide) smaller than 70.
not fulfilled

I'd appreciate it if you could check whether PGKYTADGGKHVAYII [pTL4, Tear lipocalin peptide p74–89] has relative binding ratio (IC50 of the test peptide divided by IC50 of the reference peptide) smaller than 70.
fulfilled

* * *

Recorded relative binding ratio (IC50 of the test peptide divided by IC50 of the reference peptide) values for a group of sequences are listed next.
Molecular target: DRB1*0301 (Homo sapiens, UniProt P01903+P01911, A100K/A102G/A103R/A169T/F55Y/I96L/K41T/L162R/M171V/P40S/Q125H/Q178H/Q39Y/R42S/S66N/T106N/T262R/W38E/Y61H)
Test: HLA class II peptide-binding assay (competitive ELISA)
Details: immunopurified HLA, reference peptide IC50 423 nM, ratio ≤20 high affinity, 20–200 moderate affinity

EILELAQSETCSPGGQ [pC9, Can f 1 peptide p141–156] : > 236
LEAKVTMLISGRCQEVK [pTL3, Tear lipocalin peptide p49–65] : 0.4
GKHVAYIIRSHVKDHY [pTL5, Tear lipocalin peptide p82–97] : 7
HYILYCEGELHGRQIR [pC6, Can f 1 peptide p95–110] : 14

Consider the sequence shown here: MNLESVTPMTLTTLEGGNL [pTL2, Tear lipocalin peptide p31–49] What is its recorded relative binding ratio (IC50 of the test peptide divided by IC50 of the reference peptide)?
> 236

Consider the sequence shown here: GQRVVFIQPSPVRDHY [pC5, Can f 1 peptide p81–96] What is its recorded relative binding ratio (IC50 of the test peptide divided by IC50 of the reference peptide)?
28

Consider the sequence shown here: RQIRMAKLLGRDPEQSQ [pC7, Can f 1 peptide p107–123] What is its recorded relative binding ratio (IC50 of the test peptide divided by IC50 of the reference peptide)?
4

Consider the sequence shown here: ALEDFREFSRAKGLNQ [pC8, Can f 1 peptide p125–140] What is its recorded relative binding ratio (IC50 of the test peptide divided by IC50 of the reference peptide)?
> 236

* * *

Molecular target: DRB1*1501 (Homo sapiens, UniProt P01903+P01911)
Experiment: HLA class II peptide-binding assay (competitive ELISA)
Conditions: immunopurified HLA, reference peptide IC50 775 nM, ratio ≤20 high affinity, 20–200 moderate affinity
test.readout: relative binding ratio (IC50 of the test peptide divided by IC50 of the reference peptide)
The reply should be a number, written without any unit.

Example sequences with recorded relative binding ratio (IC50 of the test peptide divided by IC50 of the reference peptide):
PGKYTAYEGQRVVFIQ [pC4, Can f 1 peptide p73–88] : 0.4
GQRVVFIQPSPVRDHY [pC5, Can f 1 peptide p81–96] : 7
GTWYLKAMTVDREFPE [pTL1, Tear lipocalin peptide p15–30] : 6

Now for the sequence whose relative binding ratio (IC50 of the test peptide divided by IC50 of the reference peptide) we want.
Consider the sequence shown here: HYILYCEGELHGRQIR [pC6, Can f 1 peptide p95–110] What is its recorded relative binding ratio (IC50 of the test peptide divided by IC50 of the reference peptide)?
7

* * *

Target: DRB1*0401 (Homo sapiens, UniProt P01903+P01911, A100K/A169T/F76Y/I96L/K127E/L162R/M171V/N62H/P40V/Q125Y/R42H/S133A/S149N/S66Y/V115G/V209L/W38E)
Test: HLA class II peptide-binding assay (competitive ELISA)
Settings: immunopurified HLA, reference peptide IC50 8 nM, ratio ≤20 high affinity, 20–200 moderate affinity
Define the label as T when relative binding ratio (IC50 of the test peptide divided by IC50 of the reference peptide) is strictly less than 70 and as F in all remaining cases.

GKHVAYIIRSHVKDHY [pTL5, Tear lipocalin peptide p82–97] : F
EILELAQSETCSPGGQ [pC9, Can f 1 peptide p141–156] : F
LEAKVTMLISGRCQEVK [pTL3, Tear lipocalin peptide p49–65] : F
RQIRMAKLLGRDPEQSQ [pC7, Can f 1 peptide p107–123] : F
PGKYTAYEGQRVVFIQ [pC4, Can f 1 peptide p73–88] : F

I'd appreciate it if you could check whether MNLESVTPMTLTTLEGGNL [pTL2, Tear lipocalin peptide p31–49] has relative binding ratio (IC50 of the test peptide divided by IC50 of the reference peptide) smaller than 70.
F

I'd appreciate it if you could check whether LEAKITMLTNGQCQNIT [pC3, Can f 1 peptide p48–64] has relative binding ratio (IC50 of the test peptide divided by IC50 of the reference peptide) smaller than 70.
T

I'd appreciate it if you could check whether GQRVVFIQPSPVRDHY [pC5, Can f 1 peptide p81–96] has relative binding ratio (IC50 of the test peptide divided by IC50 of the reference peptide) smaller than 70.
F

I'd appreciate it if you could check whether ALEDFREFSRAKGLNQ [pC8, Can f 1 peptide p125–140] has relative binding ratio (IC50 of the test peptide divided by IC50 of the reference peptide) smaller than 70.
F

I'd appreciate it if you could check whether HYILYCEGELHGRQIR [pC6, Can f 1 peptide p95–110] has relative binding ratio (IC50 of the test peptide divided by IC50 of the reference peptide) smaller than 70.
F

I'd appreciate it if you could check whether ALEDFEKAAGARGLST [pTL8, Tear lipocalin peptide p126–141] has relative binding ratio (IC50 of the test peptide divided by IC50 of the reference peptide) smaller than 70.
F

I'd appreciate it if you could check whether GKWYLKAMTADQEVPE [pC1, Can f 1 peptide p15–30] has relative binding ratio (IC50 of the test peptide divided by IC50 of the reference peptide) smaller than 70.
T

I'd appreciate it if you could check whether GTWYLKAMTVDREFPE [pTL1, Tear lipocalin peptide p15–30] has relative binding ratio (IC50 of the test peptide divided by IC50 of the reference peptide) smaller than 70.
T

I'd appreciate it if you could check whether PGKYTADGGKHVAYII [pTL4, Tear lipocalin peptide p74–89] has relative binding ratio (IC50 of the test peptide divided by IC50 of the reference peptide) smaller than 70.
T

I'd appreciate it if you could check whether HYIFYCEGELHGKPVR [pTL6, Tear lipocalin peptide p96–111] has relative binding ratio (IC50 of the test peptide divided by IC50 of the reference peptide) smaller than 70.
T
